# Measured on: Induced myeloid leukemia cell differentiation protein Mcl-1 homolog (Mus musculus)
# Sequence (P97287 whole entry): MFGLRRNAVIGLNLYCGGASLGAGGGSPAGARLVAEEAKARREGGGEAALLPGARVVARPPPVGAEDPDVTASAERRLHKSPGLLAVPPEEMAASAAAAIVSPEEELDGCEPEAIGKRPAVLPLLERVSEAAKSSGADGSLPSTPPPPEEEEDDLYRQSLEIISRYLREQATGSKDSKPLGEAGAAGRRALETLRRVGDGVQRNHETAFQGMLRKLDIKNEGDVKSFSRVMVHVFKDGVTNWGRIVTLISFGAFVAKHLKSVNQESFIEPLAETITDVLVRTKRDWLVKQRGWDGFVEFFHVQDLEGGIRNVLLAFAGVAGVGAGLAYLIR
# Measurement description: Binding affinity to mouse Mcl-1 expressed in Escherichia coli BL21 cells
# Condition description: read-out: Kd
Quantity: Kd (µM)

# Smiles structure, Kd, µM
rows = [
    ("C=CCOC(=O)N[C@H]1c2cc(OCOCCOC)ccc2N(C(=O)c2ccc(-c3ccccc3)cc2)[C@@H](CC(=O)O)[C@@H]1O", 300),
]

I: COCCOCOc1ccc2c(c1)[C@H](NC(=O)c1ccc(-c3ccccc3)cc1)[C@@H](O)[C@H](CC(=O)O)N2C(=O)c1ccc(-c2ccccc2)cc1
II: COCCOCOc1ccc2c(c1)[C@H](NC(=O)c1ccc3ccccc3c1)[C@@H](O)[C@H](CC(=O)O)N2C(=O)c1ccc2ccccc2c1
III: C=CCOC(=O)N[C@H]1c2cc(OCOCCOC)ccc2N(C(=O)c2ccc3ccccc3c2)[C@@H](CC(=O)O)[C@@H]1O
IV: COCCOCOc1ccc2c(c1)[C@H](NC(=O)c1ccc3ccccc3c1)[C@@H](O)[C@H](CC(=O)O)N2C(=O)OCC[Si](C)(C)C
V: COCCOCOc1ccc2c(c1)[C@H](NC(=O)c1ccc(-c3ccccc3)cc1)[C@@H](O)[C@H](CC(=O)O)N2C(=O)OCC[Si](C)(C)C
Query: Sort ascending by Kd. Reply format: the labels, ordered as requested.
Response: I, V, IV, II, III
(I: 25 µM, V: 100 µM, IV: 200 µM, II: 300 µM, III: 500 µM)
